# measurement_target: human mature TGFβ2 (PeproTech) (Homo sapiens, UniProt P61812)
# Sequence (P61812 303-414): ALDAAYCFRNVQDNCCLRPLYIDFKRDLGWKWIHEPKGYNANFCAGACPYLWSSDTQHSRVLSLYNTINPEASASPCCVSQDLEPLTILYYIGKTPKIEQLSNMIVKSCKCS
# procedure_text: cell-based or functional assay
recorded_endpoint: TGFβ inhibition by HEK-Blue cells (IC50: nM), TGFb2; Blocking: Complete

• h4A11.v2.1 (antibody, V domains shown, as the VH of m7 (h4A11.v2) with the stated change; numbers count on: Kabat numbering of the heavy chain; as the VL of m7 (h4A11.v2); human IgG1; also called v2.1_R19S; source: Expi293F, transient, purified (Protein A, SEC)) VH: EQQLVESGGGLVQPGGSLSLSCAVSGFSLSSYTVNWVRQAPGKGLEWIGYISYGGSAYYASWANGRFTISKDSAKNSVYLQMNSLRAEDTAVYFCARHMQVGGAPTGSMAAFDPWGPGTLVTVSS VL: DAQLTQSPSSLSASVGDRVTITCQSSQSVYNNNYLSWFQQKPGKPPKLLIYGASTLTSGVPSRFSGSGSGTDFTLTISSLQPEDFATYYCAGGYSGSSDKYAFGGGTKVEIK = 0.7
• h4A11.v2.5 (antibody, V domains shown, as the VH of m7 (h4A11.v2) with the stated changes; numbers count on: Kabat numbering of the heavy chain; as the VL of m7 (h4A11.v2); human IgG1; also called v2.5_ R19S, Q81S; source: Expi293F, transient, purified (Protein A, SEC)) VH: EQQLVESGGGLVQPGGSLSLSCAVSGFSLSSYTVNWVRQAPGKGLEWIGYISYGGSAYYASWANGRFTISKDSAKNSVYLSMNSLRAEDTAVYFCARHMQVGGAPTGSMAAFDPWGPGTLVTVSS VL: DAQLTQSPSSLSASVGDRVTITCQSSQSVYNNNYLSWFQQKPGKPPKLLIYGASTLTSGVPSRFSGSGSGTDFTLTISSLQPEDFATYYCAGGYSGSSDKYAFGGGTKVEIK = 0.7

Cited source for all entries: paper PMC8595303
